Reference source for all entries: paper PMC10447267

# Experiment Notes: Tepotinib steady-state pharmacokinetics at the clinical dose
# Assay Setup: human, in vivo, oral, 500 mg, Steady state Tmax, range
Assay Readout: Tmax

Form: molecule = CN1CCC(COc2cnc(-c3cccc(Cn4nc(-c5cccc(C#N)c5)ccc4=O)c3)nc2)CC1 [tepotinib] ; Tmax = 2 to 24 h

----------
# System Name: CYP2C9 (Homo sapiens, UniProt P11712)
# Construct: pooled mixed-gender human liver microsomes; from tissue; host or cells: pooled mixed-gender human liver microsomes
# Sequence (P11712 whole entry): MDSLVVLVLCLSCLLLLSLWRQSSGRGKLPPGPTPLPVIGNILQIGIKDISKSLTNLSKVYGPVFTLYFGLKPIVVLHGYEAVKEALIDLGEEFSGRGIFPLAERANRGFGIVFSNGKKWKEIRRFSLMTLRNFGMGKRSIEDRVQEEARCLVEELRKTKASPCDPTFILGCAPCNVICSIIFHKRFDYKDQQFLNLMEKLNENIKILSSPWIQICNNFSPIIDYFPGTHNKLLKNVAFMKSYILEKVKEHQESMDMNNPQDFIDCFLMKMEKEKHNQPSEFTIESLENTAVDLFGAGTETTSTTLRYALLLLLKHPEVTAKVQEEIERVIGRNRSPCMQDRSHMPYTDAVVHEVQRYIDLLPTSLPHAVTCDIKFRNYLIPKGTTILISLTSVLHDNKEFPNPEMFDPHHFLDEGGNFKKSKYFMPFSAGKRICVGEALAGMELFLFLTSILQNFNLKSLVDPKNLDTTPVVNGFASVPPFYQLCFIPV
# Experiment Notes: CYP2C9 inhibition in pooled human liver microsomes
# Assay type: in vitro ADME
# Assay Setup: human liver microsomes; Diclofenac 4-hydroxylation; zero-minute preincubation; read-out: Direct inhibition IC50
Assay Readout: IC50 (µM)
One number for each entry, in µM.

Value of IC50 reported for the molecule "CN1CCC(COc2cnc(-c3cccc(Cn4nc(-c5cccc(C#N)c5)ccc4=O)c3)nc2)CC1" is 27

----------
# System Name: CYP2B6 (Homo sapiens)
# Construct: pooled mixed-gender human liver microsomes; from tissue; host or cells: pooled mixed-gender human liver microsomes
# Experiment Notes: CYP2B6 inhibition in pooled human liver microsomes
# Type: in vitro ADME
# Assay Setup: both sexes, human, pooled human liver microsomes, probe efavirenz, Efavirenz 8-hydroxylation; zero-minute preincubation; 49.5 µM; read-out: Direct inhibition, maximum inhibition at 49.5 µM
# Procedure: The potential of tepotinib and MSC2571109A to inhibit CYP450 enzymes CYP1A2, 2A6, 2B6, 2C8, 2C9, 2C19, 2D6, 2E1, and 3A4/5 in vitro was evaluated using CYP-catalyzed reactions in pooled mixed-gender human liver microsomes using specific substrates and liquid chromatography/tandem mass spectrometry (LC–MS/MS) readouts. […] Testosterone 6β-hydroxylation was assessed in the MSC2571109A study. […]
Assay Readout: inhibition at 49.5 µM (%)
One number for each entry, in %.

Form field inhibition at 49.5 µM, entry "CN1CCC(COc2cnc(-c3cccc(Cn4nc(-c5cccc(C#N)c5)ccc4=O)c3)nc2)CC1" : 34

----------
# System Name: CYP2E1 (Homo sapiens, UniProt P05181)
# Construct: pooled mixed-gender human liver microsomes; from tissue; host or cells: pooled mixed-gender human liver microsomes
# Sequence (P05181 whole entry): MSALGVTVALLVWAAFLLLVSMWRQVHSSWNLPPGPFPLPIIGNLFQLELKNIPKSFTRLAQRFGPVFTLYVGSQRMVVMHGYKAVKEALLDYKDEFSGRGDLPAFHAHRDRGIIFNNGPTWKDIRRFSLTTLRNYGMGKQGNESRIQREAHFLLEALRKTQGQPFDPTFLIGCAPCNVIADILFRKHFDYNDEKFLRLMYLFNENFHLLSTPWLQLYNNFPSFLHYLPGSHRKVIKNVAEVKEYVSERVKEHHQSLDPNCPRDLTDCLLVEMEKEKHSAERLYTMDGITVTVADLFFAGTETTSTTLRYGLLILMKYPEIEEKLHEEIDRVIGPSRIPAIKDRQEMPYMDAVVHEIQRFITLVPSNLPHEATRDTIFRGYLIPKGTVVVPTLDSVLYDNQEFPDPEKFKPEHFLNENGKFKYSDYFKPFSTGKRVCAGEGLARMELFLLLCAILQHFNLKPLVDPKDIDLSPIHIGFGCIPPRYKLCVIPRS
# Experiment Notes: in vitro
# Assay type: in vitro ADME
# Assay Setup: read-out: Time-dependent inhibition IC50; Chlorzoxazone 6-hydroxylation; 30-min preincubation
# Procedure: The potential of tepotinib and MSC2571109A to inhibit CYP450 enzymes CYP1A2, 2A6, 2B6, 2C8, 2C9, 2C19, 2D6, 2E1, and 3A4/5 in vitro was evaluated using CYP-catalyzed reactions in pooled mixed-gender human liver microsomes using specific substrates and liquid chromatography/tandem mass spectrometry (LC–MS/MS) readouts. […] Testosterone 6β-hydroxylation was assessed in the MSC2571109A study. […]
Assay Readout: IC50

Input CN1CCC(COc2cnc(-c3cccc(Cn4nc(-c5cccc(C#N)c5)ccc4=O)c3)nc2)CC1 [tepotinib] . Output IC50: > 49.5 µM

----------
# System Name: CYP2B6 (Homo sapiens, UniProt P20813)
# Construct: pooled mixed-gender human liver microsomes; from tissue; host or cells: pooled mixed-gender human liver microsomes
# Sequence (P20813 whole entry): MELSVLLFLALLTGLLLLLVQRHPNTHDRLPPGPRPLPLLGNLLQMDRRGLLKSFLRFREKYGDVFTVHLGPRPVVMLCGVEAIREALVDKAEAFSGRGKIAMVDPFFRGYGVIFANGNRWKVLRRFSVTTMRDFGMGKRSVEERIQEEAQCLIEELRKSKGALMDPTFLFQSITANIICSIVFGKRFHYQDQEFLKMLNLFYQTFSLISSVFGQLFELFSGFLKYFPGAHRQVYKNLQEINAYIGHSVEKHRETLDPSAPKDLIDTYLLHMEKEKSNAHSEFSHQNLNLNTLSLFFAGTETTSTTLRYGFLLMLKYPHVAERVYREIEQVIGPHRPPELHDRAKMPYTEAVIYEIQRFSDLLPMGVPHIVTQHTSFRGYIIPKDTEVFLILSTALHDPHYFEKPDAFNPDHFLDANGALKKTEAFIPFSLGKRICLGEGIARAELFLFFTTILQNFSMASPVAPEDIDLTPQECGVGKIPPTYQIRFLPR
# Experiment Notes: CYP2B6 inhibition in pooled human liver microsomes
# Type: in vitro ADME
# Assay Setup: human liver microsomes; Efavirenz 8-hydroxylation; zero-minute preincubation; read-out: Direct inhibition IC50
pIC50: −log10 of the molar value.
Assay Readout: pIC50

Consider CN1CCC(COc2cnc(-c3cccc(Cn4nc(-c5cccc(C#N)c5)ccc4=O)c3)nc2)CC1 [tepotinib] . Its measured pIC50 is < 4.31
